Test: Biodistribution study (SPECT/CT) in SK-RC-52 tumor-bearing mice with or without gelofusine
Assay type: in vivo, NMRI nude mice
Details: female, NMRI nude, mouse, in vivo, iv, total radioactivity, SK-RC-52 model, with gelofusine, 1-2 hours post injection; read-out: peak kidney uptake
Experimental: The effect on tumor uptake of prior injection of gelofusine for kidney protection was investigated in mice bearing the SK-RC-52 tumor. Biodistribution was evaluated using in vivo SPECT/CT imaging. Prior to the in vivo study the compounds (ligands) were initially radiolabeled with In-111 and the stability of radiolabeled compounds was evaluated in buffer at three different timepoints. […]
measured-attribute: tissue uptake (%ID/g)
Answer with a number only, understood to be in %ID/g.

// sample CC(C)C[C@@H]1NC(=O)[C@H](Cc2cccc(NC(=O)CCCS(N)(=O)=O)c2)NC(=O)[C@H](CC(=O)O)NC(=O)[C@H]2CCCN2C(=O)[C@H](CCC(=O)O)NC(=O)[C@@H](NC(=O)[C@H](CCC(N)=O)NC(=O)CN2CCN(C(=O)CN3CCN(CC(=O)O)CCN(CC(=O)O)CCN(CC(=O)O)CC3)CC2)CSCc2cccc(c2)CSC[C@@H](C(N)=O)NC(=O)[C@H](CO)NC(=O)[C@H](Cc2c[nH]c3ccccc23)NC(=O)[C@H]([C@@H](C)O)NC1=O [[^111In]In-DPI-4452, metal not drawn] , its tissue uptake was 1.84

----------
Assay: Biodistribution study (SPECT/CT) in SK-RC-52 tumor-bearing mice with or without gelofusine
Type: in vivo, NMRI nude mice
Conditions: female, NMRI nude, mouse, in vivo, iv, total radioactivity, SK-RC-52, In-111-labeled, no gelofusine; Mean ± SEM; read-out: Blood uptake at 4 h p.i.
measured-attribute: tissue uptake at 4 h
State the result as a value with its unit after it.

// sample CC(C)C[C@@H]1NC(=O)[C@H](Cc2cccc(NC(=O)CCCS(N)(=O)=O)c2)NC(=O)[C@H](CC(=O)O)NC(=O)[C@H]2CCCN2C(=O)[C@H](CCC(=O)O)NC(=O)[C@@H](NC(=O)[C@H](CCC(N)=O)NC(=O)CN2CCN(C(=O)CN3CCN(CC(=O)O)CCN(CC(=O)O)CCN(CC(=O)O)CC3)CC2)CSCc2cccc(c2)CSC[C@@H](C(N)=O)NC(=O)[C@H](CO)NC(=O)[C@H](Cc2c[nH]c3ccccc23)NC(=O)[C@H]([C@@H](C)O)NC1=O , its tissue uptake at 4 h was 0.05 %ID/g

----------
Target: CAIX-expressing human HT-29 colorectal cancer cells (Homo sapiens)
Construct: CAIX-expressing human HT-29 colorectal cancer cells; host or cells: HT-29 human colorectal cancer cells
Assay: FACS binding assay (IC50 determination, competition with tracer 3BP-2776 or 3BP-4149)
Conditions: FACS binding assay, HT-29 cells, competition with tracer 3BP-2776 (10 nM, biotin-labeled), 4° C., 1 hour; read-out: pIC50 category (activity) (converted)
Starred links: 1 amine or outer side, 2 acyl side, 3 side chain; linkers in the order of their positions; H or OH if unused. Positions of bridges follow the written chain, without caps; N, C: chain ends. Non-standard residues stand in square brackets, D forms with d. Residues, ends and D or L forms follow the SMILES beside them. *: point of attachment. DOTA = O=C(O)CN1CCN(CC(=O)O)CCN(CC(=O)*)CCN(CC(=O)O)CC1; mXylylene = c1cc(C[*:1])cc(C[*:2])c1; X12 = O=C(CC1CCN([*:1])CC1)[*:2]; X2 = O=C(CN1CCC(N[*:1])CC1)[*:2]; NMeS = CN[C@@H](CO)C(=O)O; Dap = NC[C@H](N)C(=O)O
measured-attribute: IC50

As a guide, the following entries are already answered.
CC(=O)N[C@H](C(=O)N[C@@H](Cc1ccc(O)cc1)C(=O)N[C@H]1CSCc2cccc(c2)CSC[C@@H](C(N)=O)NC(=O)[C@H](CO)NC(=O)[C@H](Cc2c[nH]c3ccccc23)NC(=O)[C@H]2CC(=O)NCCCC[C@H](NC(=O)[C@H]3CCCN3C(=O)[C@H](CCC(=O)O)NC1=O)C(=O)N[C@@H](Cc1c[nH]c3ccccc13)C(=O)N[C@@H](CC(C)C)C(=O)N2)C(C)C [3BP-4043] (Ac-VYCE[dP]KWL[dD]WSC-NH2; linker 3-12 via mXylylene; lactam 6-9); 100 to 794 nM
CC(C)C[C@@H]1NC(=O)[C@H](Cc2c[nH]c3ccccc23)NC(=O)[C@H](CC(=O)O)NC(=O)[C@H]2CCCN2C(=O)[C@H](CCC(=O)O)NC(=O)[C@@H]2CSCc3cccc(c3)CSC[C@@H](C(N)=O)NC(=O)[C@H](CNC(=O)C[C@H](NC(=O)CC3CCN(C(=O)CN4CCN(CC(=O)O)CCN(CC(=O)O)CCN(CC(=O)O)CC4)CC3)C(=O)N2)NC(=O)[C@H](Cc2c[nH]c3ccccc23)NC(=O)[C@H]([C@@H](C)O)NC1=O [3BP-4259] ({DOTA}-[X12]DCE[dP]DWLTW[Dap]C-NH2; lactam 2-11; linker 3-12 via mXylylene); < 10 nM
CC(C)C[C@@H]1NC(=O)[C@H](Cc2cccc(NC(=O)CCCC(=O)NO)c2)NC(=O)[C@H](CC(=O)O)NC(=O)[C@H]2CCCN2C(=O)[C@H](CCC(=O)O)NC(=O)[C@@H](NC(=O)[C@H](CCC(N)=O)NC(=O)CN2CCN(C(=O)CN3CCN(CC(=O)O)CCN(CC(=O)O)CCN(CC(=O)O)CC3)CC2)CSCc2cccc(c2)CSC[C@@H](C(N)=O)NC(=O)[C@H](CO)NC(=O)[C@H](Cc2c[nH]c3ccccc23)NC(=O)[C@H]([C@@H](C)O)NC1=O [3BP-4515]; 10 to 79.4 nM
CC(C)C[C@@H]1NC(=O)[C@H](Cc2c[nH]c3ccccc23)NC(=O)[C@H](CC(=O)O)NC(=O)[C@H]2CCCN2C(=O)[C@H](CO)N(C)C(=O)[C@@H](NC(=O)[C@H](Cc2ccc(O)cc2)NC(=O)[C@@H](NC(=O)CN2CCC(NC(=O)CN3CCN(CC(=O)O)CCN(CC(=O)O)CCN(CC(=O)O)CC3)CC2)C(C)C)CSCc2cccc(c2)CSC[C@@H](C(N)=O)NC(=O)[C@H](CO)NC(=O)[C@H](Cc2c[nH]c3ccccc23)NC(=O)[C@H]([C@@H](C)O)NC1=O [3BP-4108] ({DOTA}-[X2]VYC[NMeS][dP]DWLTWSC-NH2; linker 4-13 via mXylylene); < 10 nM

Field: next molecule
// sample CC(C)C[C@@H]1NC(=O)[C@H](Cc2cccc(NC(=O)c3cc(S(N)(=O)=O)c[nH]3)c2)NC(=O)[C@H](CC(=O)O)NC(=O)[C@H]2CCCN2C(=O)[C@H](CCC(=O)O)NC(=O)[C@@H](NC(=O)[C@H](CCC(N)=O)NC(=O)CN2CCN(C(=O)CN3CCN(CC(=O)O)CCN(CC(=O)O)CCN(CC(=O)O)CC3)CC2)CSCc2cccc(c2)CSC[C@@H](C(N)=O)NC(=O)[C@H](CO)NC(=O)[C@H](Cc2c[nH]c3ccccc23)NC(=O)[C@H]([C@@H](C)O)NC1=O [3BP-4789] , its IC50 was 10 to 79.4 nM

Hello, the source for this data is patent US20250339569A1, in case you need it.
